Recorded values, source ChEMBL document CHEMBL1127094.

Target: Glutamate NMDA receptor
Assay: Tested for the binding potency against NMDA site of the glutamate receptor complex using rat brain cortical membranes in a competitive binding assay with [3H]CPP as radioligand
Type: cell membranes, Membrane
Ranges used to classify IC50: lower band: < 500 nM; central band: ≥ 500 nM and < 5000 nM; upper band: ≥ 5000 nM

query: Band of CC(C(=O)CP(=O)(O)O)C(N)C(=O)O (centres undefined) ?
result: upper band

query: Band of COC(=O)[C@H](N)CC(=O)CP(=O)(O)O ?
result: central band

query: Band of N[C@H](CC(=O)CP(=O)(O)O)C(=O)O ?
result: lower band

query: Band of CC(C(=O)C[C@@H](N)C(=O)O)P(=O)(O)O (some centres undefined) ?
result: central band

query: Band of CC(N)(CC(=O)CP(=O)(O)O)C(=O)O (centres undefined) ?
result: upper band

query: Band of N[C@H](C/C(CP(=O)(O)O)=N/O)C(=O)O ?
result: lower band

query: Band of CO/N=C(/C[C@@H](N)C(=O)O)CP(=O)(O)O ?
result: central band
